# Tested on: white blood cells and subsets (lymphocytes, neutrophils, eosinophils)
# assay_protocol: Differential white blood cell counts (immune suppression), MAD
# Format: in vivo, human
# measurement_context: MAD 20.0 mg/kg; Day 12 predose; mean
observable: Eosinophils

Param readout = Eosinophils; param system = white blood cells and subsets (lymphocytes, neutrophils, eosinophils); param query = C[C@@H]1C[C@H]2[C@@H]3CCC4=CC(=O)C=C[C@]4(C)C3=CC[C@]2(C)[C@@]1(O)C(=O)CO [vamorolone] ; response: value
0.12 10^9/L

----------
# assay_protocol: Phase 1 single ascending dose (SAD) pharmacokinetics, fasted
# Format: in vivo, human
# measurement_context: male, human, plasma; single oral 1 mg/kg, fasted; geometric mean (%CV)
observable: AUC(0-t) (ng·h/mL)
State just the number; it will be interpreted in ng·h/mL.

Sample C[C@@H]1C[C@H]2[C@@H]3CCC4=CC(=O)C=C[C@]4(C)C3=CC[C@]2(C)[C@@]1(O)C(=O)CO — what was its AUC(0-t)?
486
